# Test system: HCT116
# runDescription: cell viability (CellTiter-Glo) relative to plate median (fraction of plate median); higher = more viable cells
# protocolConditions: 5 µM; treatment time 24 h; reporter: TCF4/Wnt
measurementKind: cell viability
Lab note: record just the number, no unit beside it.

CN(C)CCCN1c2ccccc2CCc2ccccc21 | 0.989
COc1ccc(C(=O)/C=C/c2ccccc2)cc1 | 0.977
C[C@]12CCC[C@H](O1)c1c(cc3c(c1O)C(=O)c1c(O)cc(O)cc1C3=O)O2 [Averufin (Isoform B, Compound ID 7395)] | 1.01
C/N=C(/NC#N)NCCSCc1csc(NC(=N)N)n1 | 0.975
COc1cc(OC)cc(OC)c1 | 1.02

-- ask Can you look up the measured cell viability of CC(C)c1c(O)ccc2c1CCC1[C@@](C)(C=O)CCC[C@]21C (stereo not given in full) for me?
-- reply 1.01

-- ask Here is the next compound: CN1CCC(=C2c3ccccc3CC(=O)c3sccc32)CC1
-- reply 1.04

-- ask Here is the next compound: CC[C@@H]1C(=O)OC[C@@H]1Cc1cncn1C
-- reply 0.953

-- ask Here is the next compound: CC(=O)NCCc1ccc(O)cc1 [N-Acetyl-tyramine]
-- reply 0.985

-- ask Here is the next compound: O=C(O)CCCCCCCC(=O)O
-- reply 1.11

-- ask Here is the next compound: COC1=C[C@@H](C)[C@@H]2C[C@H]3OC(=O)C[C@H]4C(C)=C(OC)C(=O)[C@H]([C@@]2(C)C1=O)[C@@]34C
-- reply 0.972

-- ask Here is the next compound: O=C(O)[C@H](O)[C@@](O)(Cc1ccc(O)cc1)C(=O)O
-- reply 0.962

-- ask Here is the next compound: O=C(O)COCCN1CCN(C(c2ccccc2)c2ccc(Cl)cc2)CC1 (stereo not given)
-- reply 0.896

-- ask Here is the next compound: NC(=O)c1cnccn1
-- reply 0.96

-- ask Here is the next compound: COc1ccc(-c2cc(=O)c3c(O)cc(O[C@H]4O[C@H](CO[C@@H]5O[C@@H](C)[C@H](O)[C@@H](O)[C@H]5O)[C@@H](O)[C@H](O)[C@H]4O)cc3o2)cc1
-- reply 0.88
